- Test system: DMS 114 small cell lung
- Experiment: NCI tumour cell line growth inhibition, 48 h
Assay Metric: TGI

Guide cases for TGI, answers given:
CCCCCCCCCCCCCCCCCCN(C)CC(COC)OP(=O)([O-])OCC[N+](C)(C)C (stereo not drawn) = 9.75 µM
O=P1(Oc2ccc(Cl)cc2Cl)Oc2cc3ccccc3cc2O1 = > 89.3 µM
O=C(O)C1=Cc2cccc3cccc(c23)C1=O = > 100 µM
CN1CCCS/C1=C1/SC(=S)N(c2ccccc2)C1=O = > 100 µM
c1cc2c(cc1C1OCC3C(c4ccc5c(c4)OCO5)OCC13)OCO2 (stereo not drawn) = > 100 µM
CC(=O)OCc1nnn2c1C(OC(C)=O)CC2 (stereo not drawn) = > 100 µM

Consider the following items and state reported TGI for each.
1. C/C=C1\Oc2ccc(OC)cc2S1(=O)=O
2. CC(C)(C)N1CC1CNC(=O)C(=O)NCC1CN1C(C)(C)C (stereo not drawn)

Solution:
1: > 100 µM; 2: 2.49 µM
